- Tested on: Calf-thymus DNA (ctDNA)
- experiment: Fluorescent intercalator displacement (FID) ctDNA binding assay with ethidium bromide
- Design: unit not given here
- cond: 75 µM ethidium bromide, 150 µM ctDNA, pH 7.0
- Experimental: To achieve this, the fluorescent signal of a DNA intercalator, in this case, ethidium bromide (EtBr), is measured as increasing concentrations of PC are added. As the PC displaces the EtBr, the fluorescence of the mixture is diminished, and the DNA binding capacity of the complex can be calculated from the fluorescence measurement. […] The change in fluorescence is monitored as the complex is titrated into this solution. Once the decrease in fluorescence plateaued, the titration was ended. […]
Property: Ka (binding coefficient); scope: individual compounds

[
  {
    "compound": "[Cl][Pt][Cl].c1ccc(C2CCCN2)nc1 (stereo not drawn) [Complex 1, [Pt(PyPy)(Cl)2]]",
    "assayedSystem": "Calf-thymus DNA (ctDNA)",
    "Ka (binding coefficient)": "5.05 × 10^4"
  },
  {
    "compound": "N[C@H]1CCCC[C@@H]1N.[Pt+2].c1ccc(-c2nc3ccccc3[nH]2)nc1",
    "assayedSystem": "Calf-thymus DNA (ctDNA)",
    "Ka (binding coefficient)": "0.66 × 10^4"
  },
  {
    "compound": "N[C@H]1CCCC[C@@H]1N.[Pt+2].c1ccc(-c2ncc[nH]2)nc1",
    "assayedSystem": "Calf-thymus DNA (ctDNA)",
    "Ka (binding coefficient)": "5.89 × 10^4"
  },
  {
    "compound": "N[C@H]1CCCC[C@@H]1N.[Pt+2].c1ccc(C2CCCN2)nc1 (stereo not drawn)",
    "assayedSystem": "Calf-thymus DNA (ctDNA)",
    "Ka (binding coefficient)": "1.06 × 10^4"
  },
  {
    "compound": "[Cl][Pt][Cl].c1ccc(-c2ncc[nH]2)nc1 [Complex 2, [Pt(ImPy)(Cl)2]]",
    "assayedSystem": "Calf-thymus DNA (ctDNA)",
    "Ka (binding coefficient)": "2.75 × 10^4"
  },
  {
    "compound": "[Cl][Pt][Cl].c1ccc(-c2nc3ccccc3[nH]2)nc1 [Complex 3, [Pt(BImPy)(Cl)2]]",
    "assayedSystem": "Calf-thymus DNA (ctDNA)",
    "Ka (binding coefficient)": "5.10 × 10^4"
  }
]
